System: HeLa cells
Test description: Compound screen by flow cytometry: HeLa cell count as surrogate readout of cell viability (z-scoreHeLa)
Type: cell-based, human
Test settings: PKIS compound screen, Yes/No call on z-scoreHeLa
Endpoint name: cell death

Compound | Endpoint name | Result value
CCOc1ccc2c(-c3ccnc(Nc4cccc(C(F)(F)F)c4)n3)cnn2n1 [GW811761X] | cell death | No
COc1cc(Nc2nccc(N3CCC(NC(=O)Nc4cccc(C(C)=O)c4)C3)n2)cc(OC)c1OC (stereo not shown) [GSK1379753A] | cell death | No
O=c1cc(N2CCOCC2)nc2n(Cc3cccc(Cl)c3Cl)c(C3CC3)nn12 [GSK2358994A] | cell death | No
c1ccc(Oc2ccc(Nc3ccnc4cc(-c5ccc(CN6CCNCC6)o5)ccc34)cc2)nc1 [GW567142A] | cell death | No

====

System: HeLa cells
Test description: Compound screen by flow cytometry: HeLa cell count as surrogate readout of cell viability (z-scoreHeLa)
Type: cell-based, human
Test settings: human
Collected cell count rep 3 values appear next to each entry.
Answer as a number with no unit attached.

Solved entries (count: 3):
Compound | cell count rep 3
CCN(CC)CCOc1ccc(Nc2ncc3cc(-c4c(Cl)cccc4Cl)c(=O)n(C)c3n2)cc1 | 1208
O=C1Nc2ccc(I)cc2C1=Cc1cc(Br)c(O)c(Br)c1 [GW305074X] | 1196
Cc1ccc(O)cc1Nc1ccnc2ccc(S(C)(=O)=O)cc12 [GW559768X] | 44674

Let's switch to this compound now.
// cell count rep 3 value for COc1cc2c(Nc3ccc(NC(=O)c4ccccc4)cc3)ncnc2cc1OCCCN1CCOCC1 [GSK301329A] : 5236

====

Tested on: HeLa cells
Test description: Compound screen by flow cytometry: HeLa cell count as surrogate readout of cell viability (z-scoreHeLa)
Type: cell-based, human
Test settings: PKIS compounds raw data; replicate 1; HeLa cell count
cell count rep 1: recorded values
# answer = number (no unit)

Consider the worked cases shown below.
Compound | cell count rep 1
CC(C)c1ccc2c(c1)NC(=O)C2=NNc1ccc(S(N)(=O)=O)cc1 [GW300653X] | 3693
Cc1cccc(-c2nc(Nc3ccc4ncsc4c3)c3ccccc3n2)n1 [GW867588X] | 7867
COc1ccc(S(=O)(=O)NC2CCN(c3cc(C)nc(Nc4cccc(C#N)c4)n3)CC2)cc1 [GSK1653539A] | 6417
COc1cc(Nc2nccc(N3CCC(NC(=O)Nc4ccc5c(c4)OCO5)C3)n2)cc(OC)c1OC (stereo not drawn) [GSK1379766A] | 6133

Kindly note the recorded cell count rep 1 for Cc1nnc(-c2ccc(C)c(-c3ccc(C(=O)Nc4ccc(NS(C)(=O)=O)cc4)cc3)c2)o1 [GW702865X] , which is 4074

====

System: HeLa cells
Test description: Compound screen by flow cytometry: HeLa cell count as surrogate readout of cell viability (z-scoreHeLa)
Assay type: cell-based, human
Test settings: PKIS compound screen raw data, HeLa cell count, replicate 1
One threshold, 20000, splits the recorded cell count rep 1 values: lower ones are 1, equal or higher ones are -1.

Request: Find out if reported cell count rep 1 for Cn1cncc1-c1cc2c(Nc3ccc(OCc4ccccc4)cc3)ncnc2cn1 [GW281179X] is less than 20000
Result: -1

Request: For CNc1nc(-c2ccc3c(N)n[nH]c3c2)cc(N2C[C@@H](C(=O)NC3CCCCC3)OC[C@H]2C)n1 [GSK2375584A] , is the recorded cell count rep 1 below the cut-off of 20000?
Result: -1

Request: Input Cc1ccc(C(=O)Nc2ccc(Nc3ccnc4cc(-c5ccccn5)ccc34)cc2O)cc1 [GW440146A] ; condition: cell count rep 1 strictly below 20000. Does it hold?
Result: 1

Request: Please let me know if N#Cc1ccc(CCNc2nccc(-c3cccc(CN4CCNCC4)c3)n2)cc1 [GSK2137462A] shows cell count rep 1 below 20000.
Result: -1

====

Tested on: HeLa cells
Test description: Compound screen by flow cytometry: HeLa cell count as surrogate readout of cell viability (z-scoreHeLa)
Type: cell-based, human
Test settings: PKIS compounds raw data; replicate 1; HeLa cell count
Each entry below carries its reported cell count rep 1.

Look over these answered cases.
Compound | cell count rep 1
COc1ccc(Nc2nccc(N3CCC(NC(=O)C(C)c4ccc(Cl)cc4)CC3)n2)cc1 (centres unmarked) [GSK1379812A] | 6940
Cc1ccc2c(c1)C(=NNc1ccc(S(N)(=O)=O)cc1)C(=O)N2 [GW275944X] | 3417

The observed cell count rep 1 for Nc1nc(-c2ccc3c(c2)C(=Cc2cc(Br)c(O)c(Br)c2)C(=O)N3)cs1 [GW407323A] when tested with HeLa cells stands at 5658

// cell count rep 1 (HeLa cells) for Cc1cccc(-c2nc(Nc3ccc4[nH]ncc4c3)c3ccccc3n2)n1 [GW857175X] = 2034

cell count rep 1 on HeLa cells for COC(=O)c1cccc(NC(=O)NC2CCN(c3ccnc(NCc4ccc(F)cc4)n3)CC2)c1 [GSK1379860A] is 3229

====

System: HeLa cells
Test description: Compound screen by flow cytometry: HeLa cell count as surrogate readout of cell viability (z-scoreHeLa)
Type: cell-based, human
Test settings: PKIS compound screen raw data, HeLa cell count, replicate 2
Experimental: The cells were resuspended in cell culture medium without antibiotics, seeded with 10,000 cells/well into Costar flat-bottom 96-well plates (Corning, Amsterdam, the Netherlands), and were incubated overnight at 37°C/5% CO2. […] The calculated mean MOI throughout all experiments was 6.8 ± 4.6 (mean ± SD). […] HeLa cells were harvested by trypsinization and fixed with 1% paraformaldehyde. Samples were measured on a FACSLyric with HTS extension (BD Biosciences). […]
Endpoint name: cell count rep 2
Answer with the value's number alone.

// solved cases for cell count rep 2 follow
Compound | Result value
Cc1cc(NCC(c2ccccc2)c2ccccc2)nc(NCc2ccc(C(F)(F)F)cc2)n1 [GW497681X] | 6230
COC(=O)Nc1nc2ccc(Oc3ccc(NC(=O)Nc4cc(C(F)(F)F)ccc4F)cn3)cc2[nH]1 [GW681170A] | 4937
Nc1ncc(-c2cccnc2)c2scc(-c3ccc4c(c3)CCN4C(=O)Cc3ccccc3)c12 [GSK683281A] | 22399

Let's switch to this compound now.
// N#Cc1ccc(CCNc2nccc(-c3cccc(CN4CCNCC4)c3)n2)cc1 [GSK2137462A] : cell count rep 2 value = 40019

====

Test system: HeLa cells
Test description: Compound screen by flow cytometry: HeLa cell count as surrogate readout of cell viability (z-scoreHeLa)
Format: cell-based, human
Test settings: PKIS compounds raw data; replicate 2; HeLa cell count
Please mark Condition met if the recorded cell count rep 2 is equal to or greater than 4000, and Condition not met if it falls below.

Compound | Target under test | Label value
CC(C)c1nc(-c2cccc(NS(=O)(=O)c3ccccc3)c2)c(-c2ccnc(Nc3ccc4c(c3)CN(C)CC4)n2)s1 [GSK1649598A] | HeLa cells | Condition met

Request: Exam item: decide whether the reported cell count rep 2 for c1ccc(Cn2ncc3cc(Nc4ncnc5ccccc45)ccc32)cc1 [GW273749A] is at least 4000.
Result: Condition met

Request: Hello, I need to know if Clc1ccc(CNc2nccc(-c3cnn4ncccc34)n2)cc1 [GW781673X] has measured cell count rep 2 not below 4000. Thanks!
Result: Condition not met

Request: Given the entry COc1cc(Nc2ncc(-c3ccccc3)o2)cc(OC)c1OC [GW627512B] , answer whether its cell count rep 2 meets or surpasses 4000.
Result: Condition not met

Request: Please check the record CN(c1ccc2c(c1)nc(NCc1ccccc1)n2C)c1ccnc(Nc2ccc(CS(C)(=O)=O)cc2)n1 [GW811603A] and state if its cell count rep 2 is at or above 4000.
Result: Condition not met

Request: Please tell me: is the compound Nc1ncc(-c2cccnc2)c2scc(-c3ccc4c(c3)CCN4C(=O)Cc3ccccc3)c12 [GSK683281A] at or over 4000 in terms of cell count rep 2?
Result: Condition met

Request: Is reported cell count rep 2 greater than or equal to 4000 here: CN(C)C(=O)O[C@@H]1CN[C@@H](C#Cc2cc3ncnc(Nc4ccc(OCc5cccc(F)c5)c(Cl)c4)c3s2)C1 [GSK238063A]
Result: Condition not met

====

Tested on: HeLa cells
Test description: Compound screen by flow cytometry: HeLa cell count as surrogate readout of cell viability (z-scoreHeLa)
Type: cell-based, human
Test settings: human
Threshold rule: z-scoreHeLa rep 1 greater than or equal to -0.9 is rule met; below that, rule not met.

Request: Is z-scoreHeLa rep 1 at least -0.9? Consider CCN(CC)CCOc1ccc(Nc2ncc3cc(-c4c(Cl)cccc4Cl)c(=O)n(C)c3n2)cc1 [SB-601273]
Result: rule not met

Request: Does the reported z-scoreHeLa rep 1 for Cc1ccc(O)cc1Nc1ccnc2ccc(S(C)(=O)=O)cc12 [GW559768X] fall at or above the -0.9 mark?
Result: rule met

Request: Item COc1cc2c(Nc3ccc(NC(=O)c4ccccc4)cc3)ncnc2cc1OCCCN1CCOCC1 [GSK301329A] with z-scoreHeLa rep 1 of -0.9 or above?
Result: rule met

Request: In plain terms: is recorded z-scoreHeLa rep 1 at least -0.9 for O=C1Nc2ccc(I)cc2C1=Cc1cc(Br)c(O)c(Br)c1 [GW305074X] ?
Result: rule not met

Cited source for all entries: paper PMC10999543
